Listed compounds paired with reported AM2 % inhibition at μM
- study_target: AM2 (Influenza A virus, UniProt P0DOF5)
- Construct: expressed in transfected cells
- Sequence (P0DOF5 whole entry): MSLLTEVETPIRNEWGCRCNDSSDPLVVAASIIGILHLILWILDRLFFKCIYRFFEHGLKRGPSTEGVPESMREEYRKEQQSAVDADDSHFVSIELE
- assay_summary: cell-based
- setup_conditions: concentration not given; Table 2
Write it as a number; the unit % goes unstated.

Solved cases below.
Cl.NC12CC3CCC(CC(C3)C1)C2: 81.3
CC1(O)C2CC3CC(C2)CC1C3 (centres unmarked): 85.8
NC1(C(F)(F)F)C2CC3CC(C2)CC1C3 (centres unmarked): 86.3
OC1(C(F)(F)F)C2CC3CC(C2)CC1C3 (centres unmarked): 82.9

Exercise: AM2 % inhibition at μM lookup needed for NS(=O)(=O)NC1C2CC3CC(C2)CC1C3 (centres unmarked) , thanks.
Key: 81.6

----------
Listed compounds paired with reported inhibition at 100 µM
- study_target: AM2 (Influenza A virus)
- Construct: expressed in transfected cells
- assay_summary: cell-based
- setup_conditions: read-out: AM2 % inhibition at 100 uM; 100 uM; Table 1
Write it as a number; the unit % goes unstated.

Solved cases below.
O=CC12CC3CC(CC(C3)C1)C2: 65.1
OC1(C(F)(F)F)C2CC3CC(C2)CC1C3 (stereo not shown): 82.9
O=C1C2CC3CC1CC(C2)C3=O: 59.1
O=C1C2CC3CC(C2)CC1C3: 69.6
C1NC2CC3CC1CC(C3)C2.Cl [Compound 47, hydrochloride]: 83.8

Exercise: inhibition at 100 µM lookup needed for `NC(=O)C12CC3CC(CC(C3)C1)C2` , thanks.
Key: 74.9

Exercise: And then `O=[N+]([O-])C12CC3CC(CC(C3)C1)C2` , what is it?
Key: 87.2

----------
- study_target: AM2 (Influenza A virus)
- Construct: expressed in transfected cells
- assay_summary: cell-based
- setup_conditions: read-out: AM2 % inhibition at 100 uM; 100 uM; Table 1
Where a name gives a salt, the structure may show the parent alone.
Listed molecules paired with reported inhibition at 100 µM
Write it as a number; the unit % goes unstated.

Solved cases below.
N=C(N)C12CC3CC(CC(C3)C1)C2 [Compound 44, Adamantane amidine hydrochloride]: 70
NC12CC3CC(C1)CC(O)(C3)C2: 87
Cl.Cl.N=C(N)NC(=N)NC12CC3CC(CC(C3)C1)C2: 70
NOC12CC3CC(CC(C3)C1)C2 [Compound 42, O-adamantylhydroxylamine]: 87
CC(NC(=N)N)C12CC3CC(CC(C3)C1)C2 (stereo not drawn): 94

Exercise: inhibition at 100 µM lookup needed for NC1CSC2(SC1)C1CC3CC(C1)CC2C3 (stereo not drawn) , thanks.
Key: 64

Exercise: And then `Cc1nc[nH]c1/C=N/OC12CC3CC(CC(C3)C1)C2` , what is it?
Key: 81

Exercise: And then `N=C(N)NC12CC3CC(CC(C3)C1)C2` , what is it?
Key: 97

Exercise: And then N=C(NO)C12CC3CC(CC(C3)C1)C2 [Compound 46, N-hydroxyadamantanecarboximidamide] , what is it?
Key: 72.3

----------
Listed compounds paired with reported AM2 % inhibition at μM
- study_target: AM2 (Influenza A virus, UniProt P0DOF5)
- Construct: expressed in transfected cells
- assay_summary: cell-based
- setup_conditions: concentration not given; Table 2
Write it as a number; the unit % goes unstated.

Cl.NC1C[C@@H]2C[C@@H]3CC1[C@H](C2)C3 (stereo partly drawn): 94.2
O=C1C2CC3CC(C2)CC1C3: 69.6
CC1(N)C2CC3CC(C2)CC1C3 (stereo not drawn): 65.0
O=[N+]([O-])C12CC3CC(CC(C3)C1)C2: 87.2
O=[N+]([O-])C1C2CC3CC(C2)CC1C3 (stereo not drawn): 85.6

# context switch: different compound, same AM2 % inhibition at μM
Exercise: Please tell me: AM2 % inhibition at μM of `Cl.NC12CCC3CC(CC(C3)C1)C2` , system AM2 (Influenza A virus, UniProt P0DOF5)?
Key: 92
